Here, each record is paired with measured pIC50 data.
# Subject Of Test: DNA-directed RNA polymerase subunit beta (Mycobacterium tuberculosis, UniProt P9WGY9)
# Sequence (P9WGY9 whole entry): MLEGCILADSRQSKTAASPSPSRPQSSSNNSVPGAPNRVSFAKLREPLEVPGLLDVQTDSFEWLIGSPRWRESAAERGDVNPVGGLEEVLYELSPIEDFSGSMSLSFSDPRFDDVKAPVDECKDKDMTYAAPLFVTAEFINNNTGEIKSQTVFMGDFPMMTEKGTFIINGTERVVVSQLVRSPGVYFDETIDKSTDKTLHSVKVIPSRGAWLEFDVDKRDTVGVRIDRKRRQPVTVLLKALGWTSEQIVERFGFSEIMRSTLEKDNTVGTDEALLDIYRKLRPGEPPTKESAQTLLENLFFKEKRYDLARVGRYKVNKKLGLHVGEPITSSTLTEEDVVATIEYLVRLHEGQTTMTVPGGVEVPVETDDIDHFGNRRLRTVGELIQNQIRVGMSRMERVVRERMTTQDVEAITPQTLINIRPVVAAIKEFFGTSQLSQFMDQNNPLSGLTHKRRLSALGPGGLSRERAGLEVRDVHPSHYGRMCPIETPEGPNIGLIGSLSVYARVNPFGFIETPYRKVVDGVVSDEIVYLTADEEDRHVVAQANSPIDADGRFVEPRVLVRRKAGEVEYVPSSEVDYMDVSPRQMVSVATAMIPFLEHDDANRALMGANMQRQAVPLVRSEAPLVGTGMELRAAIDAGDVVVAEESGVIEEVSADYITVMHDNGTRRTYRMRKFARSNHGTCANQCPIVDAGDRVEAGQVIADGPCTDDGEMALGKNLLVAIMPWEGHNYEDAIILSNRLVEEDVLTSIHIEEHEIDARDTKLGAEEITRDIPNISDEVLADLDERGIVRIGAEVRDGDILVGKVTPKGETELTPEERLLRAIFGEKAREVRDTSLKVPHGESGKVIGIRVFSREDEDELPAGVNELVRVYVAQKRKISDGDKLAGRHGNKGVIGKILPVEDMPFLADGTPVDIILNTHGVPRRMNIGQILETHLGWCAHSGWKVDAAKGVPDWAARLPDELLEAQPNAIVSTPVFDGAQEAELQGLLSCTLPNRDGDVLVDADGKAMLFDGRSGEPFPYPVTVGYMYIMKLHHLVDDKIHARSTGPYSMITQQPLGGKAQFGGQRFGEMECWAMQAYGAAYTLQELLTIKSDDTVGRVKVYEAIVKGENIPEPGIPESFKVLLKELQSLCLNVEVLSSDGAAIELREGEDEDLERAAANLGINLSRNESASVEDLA
# Assay Info: Inhibition of wild type Mycobacterium tuberculosis RNA polymerase after 10 mins using ribo green staining by rolling circle transcription assay
pIC50: −log10 of the molar value.

Test Smiles	Limit Sign	pIC50
CO[C@H]1/C=C/O[C@@]2(C)Oc3c(C)c(O)c4c(c3C2=O)C(=O)C=C(NC(=O)/C(C)=C\C=C\[C@H](C)[C@H](O)[C@@H](C)[C@@H](O)[C@@H](C)[C@H](OC(C)=O)[C@@H]1C)C4=O	>	8.00
CO[C@H]1/C=C/O[C@@]2(C)Oc3c(C)c(O)c4c(c3C2=O)C(=O)C(/C=N/N2CCN(C)CC2)=C(NC(=O)/C(C)=C\C=C\[C@H](C)[C@H](O)[C@@H](C)[C@@H](O)[C@@H](C)[C@H](OC(C)=O)[C@@H]1C)C4=O	=	7.89
CO[C@H]1/C=C/O[C@@]2(C)Oc3c(C)c(N)c4c(c3C2=O)C(=O)C=C(NC(=O)/C(C)=C\C=C\[C@H](C)[C@H](O)[C@@H](C)[C@@H](O)[C@@H](C)[C@H](OC(C)=O)[C@@H]1C)C4=O	=	5.36
CO[C@H]1/C=C/O[C@@]2(C)Oc3c(C)c(N(C)C)c4c(c3C2=O)C(=O)C=C(NC(=O)/C(C)=C\C=C\[C@H](C)[C@H](O)[C@@H](C)[C@@H](O)[C@@H](C)[C@H](OC(C)=O)[C@@H]1C)C4=O	=	6.30
CO[C@H]1/C=C/O[C@@]2(C)Oc3c(c4c5c(nn(CCO)c5c3C)C(=C(/C=N/N3CCN(C)CC3)C4=O)NC(=O)/C(C)=C\C=C\[C@H](C)[C@H](O)[C@@H](C)[C@@H](O)[C@@H](C)[C@H](OC(C)=O)[C@@H]1C)C2=O	=	6.86

Source listed as ChEMBL document CHEMBL1909569.
